Catalogue of inhibition values
# system name: Dual specificity protein phosphatase 6 (Homo sapiens)
# protocol: DUSP6 inhibitors restoring Erk phosphorylation by chemical complementation, primary imaging in DUSP6-transfected HeLa (AID 609);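 note: phospho-Erk level distribution per well compared with pooled transfected vehicle control wells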
# assay setup: HeLa MKP-3 transfected, phospho-Erk imaging KS statistic; at 10 µM; active compounds read high; cells stimulated with TPA for 15 min
Field: numeric (%). Do not append units.

# example entries with known answers
[
  {
    "molecule": "CC(=O)N1CC=C2C(C#N)=C(N)C(C#N)(C#N)[C@H](c3ccoc3)[C@H]2C1",
    "inhibition, %": -4.7
  },
  {
    "molecule": "CCn1nnc(C(=O)O)c1C(=O)O",
    "inhibition, %": -1.98
  },
  {
    "molecule": "c1coc(CNc2ncnc3ccccc23)c1",
    "inhibition, %": 14
  }
]

`COc1ccc2c(=O)c(-c3nc(C)cs3)coc2c1` yielded inhibition of 1.98

`C[C@]12CC[C@@H]3c4ccc(O)cc4CC[C@H]3[C@@H]1CCC2=O` yielded inhibition of 17.3

`CSc1nc(Oc2ccc(=O)[nH]n2)nc(N(C)C)n1` yielded inhibition of -2.69

`CN(C=C1C(=O)CC(C)(C)CC1=O)CCN1CCNCC1` yielded inhibition of -1.98

N#CC1=C(SCC(=O)c2ccc(Cl)cc2)NC2=C(C(=O)CCC2)C1c1ccco1 (centres undefined) yielded inhibition of 9.42
